Data provenance: patent US11427553B2

Test system: NCI-H1734 cells
Test: Assay 1 cell proliferation measurement, NCI-H1734
Assay type: cell-based
Settings: Homo sapiens, Lung, read-out: Anti-proliferation IC50 [nM] NCI-H1734
MEASUREMENT_NAME: IC50 (nM)

Study these solved cases before continuing.
Cc1cc(C2=NNC(=O)OC2)ccc1-c1ccc(F)c(F)c1    42
O=C1NN=C(c2ccc(N3CCC(F)(F)CC3)c(F)c2)CO1    19

A. Cc1cc(C2=NNC(=O)OC2)ccc1-c1ccc(F)cc1
B. O=C1NN=C(c2ccc(-c3ccc(F)cc3)c(C(F)(F)F)c2)CO1
C. O=C1NN=C(c2ccc(N3CCOCC3)c(F)c2)CO1
Input line: Rank by IC50 (largest to smallest). Provide your answer as the labels ordered per the instruction.
Output line: C, A, B
(C: 40 nM, A: 26 nM, B: 13 nM)

###

Tested on: C32 cells
Test: Assay 2 cell proliferation measurement, C32
Format: cell-based
Details: Homo sapiens, Melanoma, read-out: Anti-proliferation IC50 [nM] C32
Entries and their IC50
# value in nM; strip the unit string

C[C@@H]1OC(=O)NN=C1c1ccc(-n2ccc(C(F)(F)F)n2)c(C(F)(F)F)c1 [Example 265]    132
C[C@@H]1OC(=O)NN=C1c1ccc(-c2ccc(F)cc2)c(C(F)(F)F)c1 [Example 135]    58

Input line: Quick one: IC50 for O=C1NN=C(c2ccc(-c3cnn(C(F)F)c3)c(C(F)(F)F)c2)CO1 [Example 146] ?
Output line: 52

###

Biological target: UniProtKB Q13370
MEASUREMENT_NAME: IC50 (nM)

For orientation, consider the following solved cases.
Cc1ccc(-c2ccc(C3=NNC(=O)OC3)cc2OC(F)(F)F)cn1    170
CC1OC(=O)NN=C1c1ccc(N2CCOCC2)c(C(F)(F)F)c1 (racemic)    8
Cc1ccc(-c2ccc(C3=NNC(=O)O[C@H]3C)cc2C(F)(F)F)cc1    200
COCCNc1ccc(C2=NNC(=O)OC2)cc1C(F)(F)F    120
CC(C)Cc1ccc(C2=NNC(=O)OC2)cc1C(F)(F)F    110

1. Cc1nc2cc(-c3ccc(C4=NNC(=O)OC4)cc3C(F)(F)F)ccc2s1
2. CN(c1ccc(C2=NNC(=O)OC2)cc1C(F)(F)F)C1CCCC1
Input line: Dear colleague, could you let me know whether 1 or 2 has the lower recorded IC50? Thanks. Identify your pick by its label.
Output line: 1

1. C[C@@H](CCO)Nc1ccc(C2=NNC(=O)OC2)cc1C(F)(F)F
2. CC(C)n1cc(-c2ccc(C3=NNC(=O)OC3)cc2C(F)(F)F)cn1
3. O=C1NN=C(c2ccc(NCc3cc[nH]n3)c(C(F)(F)F)c2)CO1
Input line: Arrange items by their IC50 values in increasing order. # list labels per requested ordering
Output line: 2, 3, 1

1. N#CC1CCN(c2ccc(C3=NNC(=O)OC3)cc2C(F)(F)F)CC1
2. C[C@@H]1OC(=O)NN=C1c1ccc(-c2ccc(F)c(F)c2F)c(C(F)(F)F)c1
Input line: Pick one: 1 or 2 . Which has the bigger IC50 number? # reply format: chosen label
Output line: 2
(2: 180 nM, 1: 26 nM)

###

Assay: Assay 6 in vitro metabolic stability in cryopreserved human hepatocytes (CL, Fmax)
Type: in vitro ADME
Settings: maximal oral bioavailability calculated from half-life in cryopreserved human hepatocytes, 1 μM test compound
MEASUREMENT_NAME: Fmax (%)

Answered examples (6):
C[C@@H]1OC(=O)NN=C1c1ccc(-c2cnn(C(F)F)c2)c(C(F)(F)F)c1    32
COCCCc1ccc(C2=NNC(=O)OC2)cc1C(F)(F)F    80
CC(C)(C)CCc1ccc(C2=NNC(=O)OC2)cc1C(F)(F)F    69
CC(C)Cc1ccc(C2=NNC(=O)OC2)cc1C(F)(F)F    78
O=C1NN=C(c2ccc(-c3ccc(F)cc3)c(OC(F)(F)F)c2)CO1    80
O=C1NN=C(c2ccc(-c3ccc(F)cc3)c(C(F)F)c2)CO1    67

a. CC(C)(C)Nc1ccc(C2=NNC(=O)OC2)cc1C(F)(F)F
b. O=C1NN=C(c2ccc(-c3ccc(Cl)cc3)c(C(F)F)c2)CO1
Input line: Between the two listed entries a and b , which has its Fmax at the higher number? Give the label of your selection.
Output line: a

###

Target: human full length PDE3A (Homo sapiens (Human))
Sequence (Q14432 whole entry): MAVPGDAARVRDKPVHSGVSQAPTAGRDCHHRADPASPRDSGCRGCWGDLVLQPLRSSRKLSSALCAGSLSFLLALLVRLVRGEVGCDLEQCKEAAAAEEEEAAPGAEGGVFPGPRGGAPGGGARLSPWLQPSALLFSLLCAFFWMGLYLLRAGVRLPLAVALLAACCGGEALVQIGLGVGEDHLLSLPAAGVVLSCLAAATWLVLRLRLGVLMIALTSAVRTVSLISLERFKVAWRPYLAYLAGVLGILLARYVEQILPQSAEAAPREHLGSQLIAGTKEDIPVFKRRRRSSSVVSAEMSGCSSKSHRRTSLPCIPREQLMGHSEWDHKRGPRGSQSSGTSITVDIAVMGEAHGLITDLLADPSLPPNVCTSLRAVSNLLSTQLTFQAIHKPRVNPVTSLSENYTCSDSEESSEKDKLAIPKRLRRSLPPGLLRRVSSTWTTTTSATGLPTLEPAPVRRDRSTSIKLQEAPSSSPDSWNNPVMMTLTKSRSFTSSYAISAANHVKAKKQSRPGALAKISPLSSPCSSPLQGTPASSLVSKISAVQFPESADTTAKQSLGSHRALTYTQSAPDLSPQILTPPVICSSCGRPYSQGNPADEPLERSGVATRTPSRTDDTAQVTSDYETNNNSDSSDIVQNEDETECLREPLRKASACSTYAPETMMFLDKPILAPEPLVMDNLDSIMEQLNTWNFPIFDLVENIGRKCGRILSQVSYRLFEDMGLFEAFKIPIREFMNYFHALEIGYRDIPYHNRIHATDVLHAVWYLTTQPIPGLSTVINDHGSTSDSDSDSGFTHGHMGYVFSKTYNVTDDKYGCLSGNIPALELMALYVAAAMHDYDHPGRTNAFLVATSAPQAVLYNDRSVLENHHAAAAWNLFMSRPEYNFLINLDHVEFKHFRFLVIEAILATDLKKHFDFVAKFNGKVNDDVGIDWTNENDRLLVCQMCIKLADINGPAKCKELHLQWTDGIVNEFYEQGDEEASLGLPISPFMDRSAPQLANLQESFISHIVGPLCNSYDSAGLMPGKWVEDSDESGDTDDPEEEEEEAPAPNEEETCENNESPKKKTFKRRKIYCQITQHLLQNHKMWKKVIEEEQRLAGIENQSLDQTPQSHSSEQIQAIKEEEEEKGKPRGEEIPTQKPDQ
MEASUREMENT_NAME: IC50 (nM)

O=C1NN=C(c2ccc(C3CCCOC3)c(C(F)(F)F)c2)CO1 (racemic)    27
O=C1NN=C(c2ccc(C3=CCNCC3)c(C(F)(F)F)c2)CO1    74

P. CCOC1CN(c2ccc(C3=NNC(=O)OC3)cc2C(F)(F)F)C1
Q. NC1CCC(Nc2ccc(C3=NNC(=O)OC3)cc2C(F)(F)F)CC1 (mixture of isomers)
Input line: Short answer wanted: higher IC50, P or Q ? Bench note: the answer is the label of the chosen record.
Output line: Q
(Q: 76 nM, P: 48 nM)

###

Listed here: compounds with reported IC50 for UniProt Q13370.
MEASUREMENT_NAME: IC50 (nM)

Worked examples follow.
O=C1NN=C(c2ccc(-c3cnsc3)c(C(F)(F)F)c2)CO1 [Example 49]    190
O=C1NN=C(c2ccc(NCC3(O)CCC3)c(C(F)(F)F)c2)CO1 [Example 219]    97
O=C1NN=C(c2ccc(-c3cn[nH]c3)c(C(F)F)c2)CO1 [Example 202]    63
O=C1NN=C(c2ccc(-c3cc(F)ccc3F)c(F)c2)CO1 [Example 100]    66
O=C1NN=C(c2ccc(-c3ccc4cn[nH]c4c3)c(C(F)(F)F)c2)CO1 [Example 47]    33

1. O=C1NN=C(c2ccc(N[C@@H]3C[C@@H]4CC[C@@H]3C4)c(C(F)(F)F)c2)CO1 [Example 233]
2. C[C@@H]1OC(=O)NN=C1c1ccc(-c2cccc(O)c2)c(C(F)(F)F)c1 [Example 175]
3. Cc1cnccc1-c1ccc(C2=NNC(=O)OC2)cc1F [Example 78]
4. COc1ccccc1-c1ccc(C2=NNC(=O)OC2)cc1F [Example 116]
Input line: # rank_down: sort by IC50, max first Form field (ranking): labels in requested order.
Output line: 1, 4, 3, 2
(1: 250 nM, 4: 76 nM, 3: 48 nM, 2: 24 nM)

###

Tested on: JHOM1 cells
Experiment: Assay 2 cell proliferation measurement, JHOM1
Assay type: cell-based
Conditions: Homo sapiens, Ovary adenocarcinoma, read-out: Anti-proliferation IC50 [nM] JHOM1
MEASUREMENT_NAME: IC50 (nM)
API: value field is a number in nM; no unit string.

Input line: Name the recorded IC50 for "O=C1NN=C(c2ccc(-c3cnn(C(F)F)c3)c(C(F)(F)F)c2)CO1" .
Output line: 8

###

Experiment: Assay 6 in vitro metabolic stability in cryopreserved human hepatocytes (CL, Fmax)
Format: in vitro ADME
Conditions: hepatic in vivo blood clearance calculated (well-stirred) from half-life in cryopreserved human hepatocytes, 1 μM test compound
MEASUREMENT_NAME: Clblood (mL/min/kg)

The following compounds have reported results that may help.
COC/C=C/c1ccc(C2=NNC(=O)OC2)cc1C(F)(F)F [Example 140]    8.5
O=C1NN=C(c2ccc(-c3ccc(Cl)cc3)c(OC(F)(F)F)c2)CO1 [Example 71]    3.17
COCCCc1ccc(C2=NNC(=O)OC2)cc1C(F)(F)F [Example 267]    4.5
O=C1NN=C(c2ccc(-c3ccc(F)cc3F)c(F)c2)CO1 [Example 111]    5.33
CC(C)(C)CCc1ccc(C2=NNC(=O)OC2)cc1C(F)(F)F [Example 269]    6.83

A. O=C1NN=C(c2ccc(-c3ccc(F)cc3)c(C(F)(F)F)c2)CO1 [Example 3]
B. C[C@@H]1OC(=O)NN=C1c1ccc(-c2ccc(F)cc2)c(C(F)(F)F)c1 [Example 135]
C. C[C@@H]1OC(=O)NN=C1c1cc(Cl)c(N2CCOCC2)c(C(F)(F)F)c1 [Example 121]
Input line: Sort the 3 compounds by Clblood; largest first, smallest last. To answer, arrange all of the labels according to the requested order.
Output line: B, A, C

###

So I've got IC50 readings for human full length PDE3B (Homo sapiens (Human), UniProt Q13370), take a look.
MEASUREMENT_NAME: IC50 (nM)

Cc1cc(-c2ccc(C3=NNC(=O)OC3)cc2C(F)(F)F)sc1C#N [Example 152]    76
Cc1ccc(-c2ccc(C3=NNC(=O)O[C@H]3C)cc2C(F)(F)F)cc1F [Example 178]    130
Cc1n[nH]c(C)c1-c1ccc(C2=NNC(=O)OC2)cc1C(F)(F)F [Example 128]    270

A. CC1OC(=O)NN=C1c1ccc(Br)cc1 (racemic) [Intermediate 72]
B. Cn1nccc1CNc1ccc(C2=NNC(=O)OC2)cc1C(F)(F)F [Example 236]
Input line: When their IC50 values are compared, which is larger, A or B ? Reply with the label of the item you choose.
Output line: A
(A: 400 nM, B: 54 nM)
